Parameter response vs control in vivo at 5 mg/kg: see the listing below.
# Tested on: ICR mice
# EXPERIMENT: Test of increase in fecal protein concentration using mice
# Assay type: in vivo, mouse
# CONDITION_SET: Mus musculus, po, 9 h, 5 mg/kg oral, male ICR mice, feces collected 3 to 9 hours after feeding started, control group = 1; read-out: Fecal protein, Folds (vs. control)

See these solved cases before continuing.
N=C(N)Nc1ccc(C(=O)Oc2ccc3cc(C(=O)N(CC(=O)O)Cc4ccc(CC(=O)O)cc4)ccc3c2)cc1 :: 239%
N=C(N)Nc1ccc(C(=O)Oc2ccc3c(c2)CCCC3CC(=O)N(Cc2ccccc2)CC(CC(=O)O)CC(=O)O)cc1 (centres unmarked) :: 172%

INPUT: Recorded response vs control in vivo at 5 mg/kg for N=C(N)Nc1ccc(C(=O)Oc2ccc3c(C(=O)N(CC(=O)O)Cc4cccc(C(=O)O)c4)cccc3c2)cc1 with ICR mice, please?
OUTPUT: 261%

INPUT: Would you kindly repeat that for C[C@H](C(=O)O)N(Cc1csc(C(=O)O)c1)C(=O)c1csc2cc(OC(=O)c3ccc(NC(=N)N)cc3)ccc12 ?
OUTPUT: 143%

INPUT: Would you kindly repeat that for C[C@H](C(=O)O)N(Cc1csc(C(=O)O)c1)C(=O)CC1CCCc2cc(OC(=O)c3ccc(NC(=N)N)cc3)ccc21 (some centres unmarked) [Example 19] ?
OUTPUT: 251%

INPUT: Would you kindly repeat that for N=C(N)Nc1ccc(C(=O)Oc2ccc3c(C(=O)N(CC(=O)O)Cc4ccc5sc(C(=O)O)cc5c4)cccc3c2)cc1 ?
OUTPUT: 207%

INPUT: Would you kindly repeat that for N=C(N)Nc1ccc(C(=O)Oc2ccc3c(c2)CCCC3CC(=O)N(CC(=O)O)Cc2cccc(CC(=O)O)c2)cc1 (centres unmarked) ?
OUTPUT: 201%
